Every entry's value here was drawn from patent US20210254056A1.

test system: hepatocytes; assay: RNA-seq of hepatocytes treated with Phase III failure compounds
Measure: RNA-seq results, CYP2C19 expression

INSERT INTO measurements (smiles_input, subject_of_test, reported_result) VALUES
  ('COc1cc2nccc(Oc3ccc(NC(=O)Nc4cc(C)on4)c(Cl)c3)c2cc1OC', 'hepatocytes', '−1.36'),
  ('CCN(CC)CCN(Cc1ccc(-c2ccc(C(F)(F)F)cc2)cc1)C(=O)Cn1c(SCc2ccc(F)cc2)nc(=O)c2c1CCC2', 'hepatocytes', '−0.01'),
  ('C=CCNC1=C2C[C@@H](C)C[C@H](OC)[C@H](O)[C@@H](C)/C=C(\C)[C@H](OC(N)=O)[C@@H](OC)/C=C\C=C(/C)C(=O)NC(=CC1=O)C2=O', 'hepatocytes', 0.34);

RNA-seq results, CYP2C19 expression lookup needed for "COc1cc2c(Oc3ccc4[nH]c(C)cc4c3F)ncnc2cc1OCCCN1CCCC1" , thanks.
−0.80

###

tested on: hepatocytes; assay: RNA-seq of hepatocytes treated with Phase III failure compounds; details: gene GATA6; hepatocytes
Measure: RNA-seq results: GATA6 expression
Form: value (number only, do not type unit).

INSERT INTO results (compound, reported_result) VALUES
  ('Cn1cnc2c(F)c(Nc3ccc(Br)cc3Cl)c(C(=O)NOCCO)cc21', '−0.01'),
  ('CCC(CC)[C@H](NC(C)=O)[C@@H]1[C@H](O)[C@@H](C(=O)O)C[C@H]1NC(=N)N.O.O.O [peramivir (trihydrate), peramivir]', '−0.02'),
  ('COc1cc(Nc2ncc(F)c(Nc3ccc4c(n3)N(COP(=O)(O)O)C(=O)C(C)(C)O4)n2)cc(OC)c1OC', '−0.12'),
  ('NC(=O)c1ccc(I)c([N+](=O)[O-])c1', '−0.07');

RNA-seq results: GATA6 expression lookup needed for O=P(O)(NCCCl)NCCCl [Palifosfamide] , thanks.
0.11

RNA-seq results: GATA6 expression lookup needed for "COc1cc2nccc(Oc3ccc(NC(=O)Nc4cc(C)on4)c(Cl)c3)c2cc1OC" , thanks.
−0.71

RNA-seq results: GATA6 expression lookup needed for "CCN(CC)CCN(Cc1ccc(-c2ccc(C(F)(F)F)cc2)cc1)C(=O)Cn1c(SCc2ccc(F)cc2)nc(=O)c2c1CCC2" , thanks.
0

RNA-seq results: GATA6 expression lookup needed for "Cn1cc(C2=C(c3cn(C4CCN(Cc5ccccn5)CC4)c4ccccc34)C(=O)NC2=O)c2ccccc21" , thanks.
−0.26

###

# RNA-seq results, CYP2C19 expression listing for each entry below
system: hepatocytes; experiment: RNA-seq of hepatocytes treated with Phase III failure compounds
Form: value (number only, do not type unit).

INSERT INTO assay_data (smiles_input, reported_result) VALUES
  ('Cn1cc(C2=C(c3cn(C4CCN(Cc5ccccn5)CC4)c4ccccc34)C(=O)NC2=O)c2ccccc21', 0.47);

Record lookup: for hepatocytes, what RNA-seq results, CYP2C19 expression belongs to "Cn1cnc2c(F)c(Nc3ccc(Br)cc3Cl)c(C(=O)NOCCO)cc21" ?
0.76

Record lookup: for hepatocytes, what RNA-seq results, CYP2C19 expression belongs to "NC(=O)c1ccc(I)c([N+](=O)[O-])c1" ?
0.30

Record lookup: for hepatocytes, what RNA-seq results, CYP2C19 expression belongs to "CCOC(=O)N1c2ccc(C(F)(F)F)cc2[C@@H](N(Cc2cc(C(F)(F)F)cc(C(F)(F)F)c2)C(=O)OC)C[C@H]1CC" ?
0.61
